# TESTED_SYSTEM: Hmlalpha2 (UniProt P0CY09)
# Sequence: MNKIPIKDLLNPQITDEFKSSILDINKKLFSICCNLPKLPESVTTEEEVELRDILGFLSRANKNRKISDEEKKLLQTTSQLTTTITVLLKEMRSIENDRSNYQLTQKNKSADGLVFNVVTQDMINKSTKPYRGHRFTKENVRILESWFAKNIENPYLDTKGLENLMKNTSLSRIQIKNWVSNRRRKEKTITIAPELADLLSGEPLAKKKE
# ASSAY_PROTOCOL: PBM E-score (8-mer binding enrichment) (E-score (-0.5 to 0.5)); higher = stronger / more preferred TF binding
# REPORTED_CONDITIONS: protein concentration: 200 nM; construct: GST-full length
The full ranking holds about 33,000 sequences; the median of “E-score (-0.5 to 0.5)” is about -0.04, and the highest 2% start at about 0.36. The entries come from a sample that favours the highest values as a whole.
OUTCOME_MEASURE: PBM E-score

{"CONSTRUCT_SEQUENCE": "GCTCAACC", "VALUE_REPORTED": -0.147}
{"CONSTRUCT_SEQUENCE": "GCGTAAAC", "VALUE_REPORTED": 0.404}
{"CONSTRUCT_SEQUENCE": "GTCAACAC", "VALUE_REPORTED": 0.358}
{"CONSTRUCT_SEQUENCE": "GATAAGAC", "VALUE_REPORTED": -0.0897}
{"CONSTRUCT_SEQUENCE": "ATCAACAC", "VALUE_REPORTED": 0.399}
{"CONSTRUCT_SEQUENCE": "GAAGGCCA", "VALUE_REPORTED": -0.38}
{"CONSTRUCT_SEQUENCE": "CCGTAAAA", "VALUE_REPORTED": 0.12}
{"CONSTRUCT_SEQUENCE": "GTCGTGTA", "VALUE_REPORTED": 0.464}
{"CONSTRUCT_SEQUENCE": "GTCGTGCA", "VALUE_REPORTED": 0.0844}
{"CONSTRUCT_SEQUENCE": "ATCGTGTG", "VALUE_REPORTED": 0.313}
{"CONSTRUCT_SEQUENCE": "ATCCAGCA", "VALUE_REPORTED": -0.0498}
{"CONSTRUCT_SEQUENCE": "ACGTGTCG", "VALUE_REPORTED": 0.308}
{"CONSTRUCT_SEQUENCE": "CTCCCTCC", "VALUE_REPORTED": -0.389}
{"CONSTRUCT_SEQUENCE": "CCCTTAAA", "VALUE_REPORTED": -0.0696}
{"CONSTRUCT_SEQUENCE": "CTCAACAA", "VALUE_REPORTED": 0.302}
{"CONSTRUCT_SEQUENCE": "ATCAACCC", "VALUE_REPORTED": 0.144}
{"CONSTRUCT_SEQUENCE": "AAACGGGT", "VALUE_REPORTED": 0.153}
{"CONSTRUCT_SEQUENCE": "TCCAAGCA", "VALUE_REPORTED": -0.164}
{"CONSTRUCT_SEQUENCE": "AAAACAGA", "VALUE_REPORTED": 0.137}
{"CONSTRUCT_SEQUENCE": "ACACGGGT", "VALUE_REPORTED": 0.391}
{"CONSTRUCT_SEQUENCE": "ACGTGTCA", "VALUE_REPORTED": 0.392}
{"CONSTRUCT_SEQUENCE": "GCGTGTCA", "VALUE_REPORTED": 0.382}
{"CONSTRUCT_SEQUENCE": "ATTGAGAA", "VALUE_REPORTED": 0.142}
{"CONSTRUCT_SEQUENCE": "GTCGTGGA", "VALUE_REPORTED": -0.154}
{"CONSTRUCT_SEQUENCE": "TCAGAAGA", "VALUE_REPORTED": -0.267}
{"CONSTRUCT_SEQUENCE": "GTTCTGAA", "VALUE_REPORTED": 0.213}
{"CONSTRUCT_SEQUENCE": "TGGATCCA", "VALUE_REPORTED": -0.063}
{"CONSTRUCT_SEQUENCE": "CCGGGAAG", "VALUE_REPORTED": -0.179}
{"CONSTRUCT_SEQUENCE": "ATCCACAT", "VALUE_REPORTED": 0.158}
{"CONSTRUCT_SEQUENCE": "GTGTGTCA", "VALUE_REPORTED": 0.307}
{"CONSTRUCT_SEQUENCE": "GCGTAAGC", "VALUE_REPORTED": 0.183}
{"CONSTRUCT_SEQUENCE": "ATCAACAT", "VALUE_REPORTED": 0.44}
{"CONSTRUCT_SEQUENCE": "CACTAGGA", "VALUE_REPORTED": -0.225}
{"CONSTRUCT_SEQUENCE": "TATCGTCA", "VALUE_REPORTED": -0.00037}
{"CONSTRUCT_SEQUENCE": "TCGTGTCA", "VALUE_REPORTED": 0.395}
{"CONSTRUCT_SEQUENCE": "TAGTGTCA", "VALUE_REPORTED": 0.0999}
{"CONSTRUCT_SEQUENCE": "CCGTAAAC", "VALUE_REPORTED": 0.199}
{"CONSTRUCT_SEQUENCE": "CGAGAAAG", "VALUE_REPORTED": -0.0529}
{"CONSTRUCT_SEQUENCE": "CTGGGAGA", "VALUE_REPORTED": -0.262}
{"CONSTRUCT_SEQUENCE": "AGTAACTA", "VALUE_REPORTED": 0.213}
{"CONSTRUCT_SEQUENCE": "ATCAACAG", "VALUE_REPORTED": 0.136}
{"CONSTRUCT_SEQUENCE": "ACTCTCCC", "VALUE_REPORTED": -0.283}
{"CONSTRUCT_SEQUENCE": "CGCGGCCC", "VALUE_REPORTED": -0.135}
{"CONSTRUCT_SEQUENCE": "TCCCTGAA", "VALUE_REPORTED": -0.0392}

* * *

# TESTED_SYSTEM: Hmlalpha2 (UniProt P0CY09)
# Sequence: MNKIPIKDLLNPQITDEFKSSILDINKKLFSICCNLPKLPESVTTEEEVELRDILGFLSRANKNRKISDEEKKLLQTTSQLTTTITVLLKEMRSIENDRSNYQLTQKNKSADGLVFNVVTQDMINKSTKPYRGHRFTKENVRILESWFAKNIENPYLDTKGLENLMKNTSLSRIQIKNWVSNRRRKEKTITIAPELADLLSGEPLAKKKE
# ASSAY_PROTOCOL: PBM E-score (8-mer binding enrichment) (E-score (-0.5 to 0.5)); higher = stronger / more preferred TF binding
# REPORTED_CONDITIONS: protein concentration: 200 nM; construct: GST-full length
Over roughly 33,000 sequences, “E-score (-0.5 to 0.5)” has its median near -0.04; the highest 2% begin near 0.36. Many of the other results were omitted from the sample, so the highest values are more common in it than they were.
# maps each entry to its PBM E-score

{"CONSTRUCT_SEQUENCE": "AACTACGT", "PBM E-score": 0.186}
{"CONSTRUCT_SEQUENCE": "AGAGGTCC", "PBM E-score": -0.273}
{"CONSTRUCT_SEQUENCE": "TCCTATCA", "PBM E-score": -0.172}
{"CONSTRUCT_SEQUENCE": "CCGCGATC", "PBM E-score": -0.238}
{"CONSTRUCT_SEQUENCE": "CACCTATC", "PBM E-score": -0.0688}
{"CONSTRUCT_SEQUENCE": "AACTACAC", "PBM E-score": 0.42}
{"CONSTRUCT_SEQUENCE": "GTATAAGA", "PBM E-score": 0.116}
{"CONSTRUCT_SEQUENCE": "AGCACTGC", "PBM E-score": -0.17}
{"CONSTRUCT_SEQUENCE": "AAAGAATC", "PBM E-score": -0.124}
{"CONSTRUCT_SEQUENCE": "AAGTAGGC", "PBM E-score": -0.0798}
{"CONSTRUCT_SEQUENCE": "CTATAATA", "PBM E-score": -0.00916}
{"CONSTRUCT_SEQUENCE": "CTATAACA", "PBM E-score": 0.335}
